# measuredTarget: human Nav1.7 (Homo sapiens, UniProt Q15858)
# Sequence (Q15858 whole entry): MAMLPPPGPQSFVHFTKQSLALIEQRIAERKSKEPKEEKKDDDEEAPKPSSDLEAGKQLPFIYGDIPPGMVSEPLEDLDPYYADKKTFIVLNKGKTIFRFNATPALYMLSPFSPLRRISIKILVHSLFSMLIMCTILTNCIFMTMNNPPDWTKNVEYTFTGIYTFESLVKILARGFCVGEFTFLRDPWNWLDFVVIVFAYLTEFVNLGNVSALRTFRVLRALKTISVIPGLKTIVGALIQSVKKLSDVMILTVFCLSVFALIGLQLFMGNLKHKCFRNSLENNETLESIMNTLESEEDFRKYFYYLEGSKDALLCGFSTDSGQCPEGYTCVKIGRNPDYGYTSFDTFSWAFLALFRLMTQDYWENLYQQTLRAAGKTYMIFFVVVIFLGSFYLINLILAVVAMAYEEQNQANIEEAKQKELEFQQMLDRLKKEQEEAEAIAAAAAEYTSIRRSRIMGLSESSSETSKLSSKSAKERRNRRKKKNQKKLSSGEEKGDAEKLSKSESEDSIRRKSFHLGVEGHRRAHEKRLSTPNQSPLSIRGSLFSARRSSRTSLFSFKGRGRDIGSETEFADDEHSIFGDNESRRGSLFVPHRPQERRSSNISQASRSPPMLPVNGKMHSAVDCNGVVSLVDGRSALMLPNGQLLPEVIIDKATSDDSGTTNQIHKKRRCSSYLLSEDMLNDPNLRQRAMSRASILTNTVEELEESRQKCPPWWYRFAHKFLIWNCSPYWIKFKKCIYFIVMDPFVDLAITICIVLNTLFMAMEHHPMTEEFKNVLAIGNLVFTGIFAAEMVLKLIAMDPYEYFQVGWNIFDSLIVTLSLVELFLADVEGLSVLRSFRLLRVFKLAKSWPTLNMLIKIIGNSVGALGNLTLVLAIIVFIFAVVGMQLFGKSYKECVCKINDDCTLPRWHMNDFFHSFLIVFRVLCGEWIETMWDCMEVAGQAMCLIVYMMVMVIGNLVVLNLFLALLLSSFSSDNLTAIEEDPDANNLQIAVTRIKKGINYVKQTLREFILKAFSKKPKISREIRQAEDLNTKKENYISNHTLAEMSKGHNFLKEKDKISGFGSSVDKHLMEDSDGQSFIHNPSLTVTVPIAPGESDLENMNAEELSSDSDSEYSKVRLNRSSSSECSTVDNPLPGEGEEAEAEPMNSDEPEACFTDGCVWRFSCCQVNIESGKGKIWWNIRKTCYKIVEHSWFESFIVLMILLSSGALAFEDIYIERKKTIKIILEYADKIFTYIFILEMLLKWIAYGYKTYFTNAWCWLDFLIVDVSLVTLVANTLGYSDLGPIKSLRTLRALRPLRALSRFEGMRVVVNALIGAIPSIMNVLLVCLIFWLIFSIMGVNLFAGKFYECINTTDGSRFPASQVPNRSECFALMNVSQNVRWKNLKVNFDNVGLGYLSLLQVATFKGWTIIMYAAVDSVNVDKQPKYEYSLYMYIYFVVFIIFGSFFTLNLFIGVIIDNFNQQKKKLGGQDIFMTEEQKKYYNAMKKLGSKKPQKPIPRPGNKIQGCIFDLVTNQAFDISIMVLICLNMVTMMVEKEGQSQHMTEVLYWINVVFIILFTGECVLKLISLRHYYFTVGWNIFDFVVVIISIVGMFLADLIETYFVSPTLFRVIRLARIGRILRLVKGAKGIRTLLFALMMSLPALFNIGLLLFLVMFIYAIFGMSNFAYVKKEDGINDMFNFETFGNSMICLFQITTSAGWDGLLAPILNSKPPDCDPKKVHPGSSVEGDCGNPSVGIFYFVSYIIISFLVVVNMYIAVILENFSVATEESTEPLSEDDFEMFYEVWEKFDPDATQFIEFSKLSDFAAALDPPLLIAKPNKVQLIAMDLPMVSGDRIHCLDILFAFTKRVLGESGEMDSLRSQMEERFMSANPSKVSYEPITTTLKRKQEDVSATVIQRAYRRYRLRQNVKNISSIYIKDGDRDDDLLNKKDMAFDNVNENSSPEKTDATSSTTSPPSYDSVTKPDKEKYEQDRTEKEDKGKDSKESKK
# procedureDetails: PatchXpress automated patch-clamp, inactivated state block of Nav1.7
# appliedConditions: channels stably expressed in HEK 293 cells, 22° C., read-out: potency for the Nav 1.7 sodium ion channel (as measured by PatchXpress)
reportedMetric: IC50 (nM)

N#Cc1cc(S(=O)(=O)Nc2cccc(F)n2)ccc1NCC12CCCN1CCC2 ... 168
COc1ccc([C@@H]2CN3CCC[C@@]3(CNc3cc(F)c(S(=O)(=O)Nc4nccs4)cc3Cl)C2)cc1 (single isomer, unassigned) ... 51

(I) CC1CN2CCCC2(CNc2cc(F)c(S(=O)(=O)Nc3nccs3)cc2Cl)C1 (centres unmarked)
(II) COc1ccc([C@H]2CN3CCC[C@]3(CNc3cc(F)c(S(=O)(=O)Nc4nccs4)cc3Cl)C2)cc1 (single isomer, unassigned)
(III) O=S(=O)(Nc1nccs1)c1cc(Cl)c(NC[C@@]23CCCN2CC2(CC2)C3)cc1F (single isomer, unassigned)
Input: Ascending sort, IC50. # answer = labels listed in requested order
Output: I, II, III

* * *

# measuredTarget: human Nav1.5 (Homo sapiens, UniProt Q14524)
# Construct: expressed in transfected cells
# Sequence (Q14524 whole entry): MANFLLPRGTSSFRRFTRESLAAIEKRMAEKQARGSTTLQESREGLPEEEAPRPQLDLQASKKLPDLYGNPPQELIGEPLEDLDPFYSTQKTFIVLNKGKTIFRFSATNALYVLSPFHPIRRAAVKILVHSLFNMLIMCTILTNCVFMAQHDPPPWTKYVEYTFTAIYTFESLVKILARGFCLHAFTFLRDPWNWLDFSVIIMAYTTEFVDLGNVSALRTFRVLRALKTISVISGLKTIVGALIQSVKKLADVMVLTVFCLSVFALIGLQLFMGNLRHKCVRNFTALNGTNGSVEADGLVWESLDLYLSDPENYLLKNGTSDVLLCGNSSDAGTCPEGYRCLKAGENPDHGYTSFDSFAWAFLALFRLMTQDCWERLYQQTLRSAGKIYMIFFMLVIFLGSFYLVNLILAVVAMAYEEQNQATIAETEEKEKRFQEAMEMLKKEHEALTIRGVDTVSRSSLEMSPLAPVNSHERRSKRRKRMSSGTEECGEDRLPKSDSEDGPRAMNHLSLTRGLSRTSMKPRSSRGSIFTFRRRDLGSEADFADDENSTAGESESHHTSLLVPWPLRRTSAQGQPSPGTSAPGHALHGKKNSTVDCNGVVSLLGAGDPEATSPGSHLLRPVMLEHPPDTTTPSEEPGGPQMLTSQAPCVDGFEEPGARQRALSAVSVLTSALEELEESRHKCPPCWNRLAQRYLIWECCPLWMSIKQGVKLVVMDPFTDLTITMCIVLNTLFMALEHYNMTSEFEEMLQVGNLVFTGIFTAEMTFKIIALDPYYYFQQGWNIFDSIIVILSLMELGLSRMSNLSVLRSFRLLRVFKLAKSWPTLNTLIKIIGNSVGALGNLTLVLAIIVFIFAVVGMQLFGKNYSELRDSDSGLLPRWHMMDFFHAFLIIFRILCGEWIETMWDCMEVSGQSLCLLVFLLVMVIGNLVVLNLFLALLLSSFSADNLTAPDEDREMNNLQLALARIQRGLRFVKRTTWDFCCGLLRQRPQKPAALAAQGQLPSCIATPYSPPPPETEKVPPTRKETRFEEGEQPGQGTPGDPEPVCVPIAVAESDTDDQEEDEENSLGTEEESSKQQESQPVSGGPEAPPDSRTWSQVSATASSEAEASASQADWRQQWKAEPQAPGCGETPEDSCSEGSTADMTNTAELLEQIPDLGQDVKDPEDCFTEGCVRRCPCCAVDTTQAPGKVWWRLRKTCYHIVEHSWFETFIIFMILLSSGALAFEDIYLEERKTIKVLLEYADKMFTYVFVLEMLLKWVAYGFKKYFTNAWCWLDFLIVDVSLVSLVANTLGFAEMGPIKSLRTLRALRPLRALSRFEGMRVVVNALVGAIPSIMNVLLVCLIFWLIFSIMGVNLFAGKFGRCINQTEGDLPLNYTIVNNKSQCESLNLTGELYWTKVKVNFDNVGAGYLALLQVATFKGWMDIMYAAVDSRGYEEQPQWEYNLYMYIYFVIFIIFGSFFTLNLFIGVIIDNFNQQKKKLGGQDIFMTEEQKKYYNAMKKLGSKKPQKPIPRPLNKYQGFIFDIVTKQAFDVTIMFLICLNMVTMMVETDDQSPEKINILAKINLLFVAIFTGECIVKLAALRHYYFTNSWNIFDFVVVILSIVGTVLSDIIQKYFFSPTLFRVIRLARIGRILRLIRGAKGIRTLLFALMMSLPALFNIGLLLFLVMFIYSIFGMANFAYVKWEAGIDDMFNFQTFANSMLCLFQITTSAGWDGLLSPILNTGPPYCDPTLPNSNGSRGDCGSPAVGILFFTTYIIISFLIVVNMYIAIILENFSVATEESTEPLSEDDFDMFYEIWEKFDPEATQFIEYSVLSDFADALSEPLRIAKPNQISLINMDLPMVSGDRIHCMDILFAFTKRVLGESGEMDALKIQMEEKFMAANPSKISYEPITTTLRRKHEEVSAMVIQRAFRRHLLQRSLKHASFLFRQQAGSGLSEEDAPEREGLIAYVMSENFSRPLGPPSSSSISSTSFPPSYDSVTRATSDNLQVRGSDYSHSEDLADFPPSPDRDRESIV
# procedureDetails: PatchXpress automated patch-clamp, inactivated state block of Nav1.5 (selectivity)
# Format: cell-based
# appliedConditions: determined by PatchXpress measurement, HEK 293 cells
reportedMetric: ratio of Nav1.7 potency:Nav 1.5 potency
Give a plain numeric answer without units written out.

Below, 2 compounds whose answers are already recorded.
CC(Nc1cc(F)c(S(=O)(=O)Nc2nccs2)cc1Cl)C12CCCN1CCC2 (single isomer, unassigned) [Ex5-9] ... 26
CC1CN2CCCC2(CNc2ccc(S(=O)(=O)Nc3nccs3)cc2C#N)C1 (racemic) ... 1109

Input: Find the recorded ratio of Nav1.7 potency:Nav 1.5 potency belonging to CCc1cc(S(=O)(=O)Nc2nccs2)c(F)cc1NCC12CCCN1CC(C)(C)C2 (single isomer, unassigned) [Ex18-9-B] and report it.
Output: 1870

Input: What value of ratio of Nav1.7 potency:Nav 1.5 potency has been reported for the following compound? Cc1csc(NS(=O)(=O)c2cc(Cl)c(NCC34CCCN3CC(C)(C)C4)cc2F)n1 (racemic)
Output: 947

* * *

# measuredTarget: human Nav1.5 (Homo sapiens)
# Construct: expressed in transfected cells
# procedureDetails: PatchXpress automated patch-clamp, inactivated state block of Nav1.5 (selectivity)
# Assay type: cell-based
# appliedConditions: determined by PatchXpress measurement, HEK 293 cells
reportedMetric: ratio of Nav1.7 potency:Nav 1.5 potency
// print number alone

In the examples that follow, each entry is paired with its recorded ratio of Nav1.7 potency:Nav 1.5 potency.
O=S(=O)(Nc1nccs1)c1cc(Cl)c(NC[C@]23CCCN2[C@@H](CO)CC3)cc1F (single isomer, unassigned) ... 3045
O=S(=O)(Nc1nccs1)c1cc(F)c(NCC23CCCN2CCC3)cc1Cl ... 462
COc1ccc([C@@H]2CN3CCC[C@@]3(CNc3cc(F)c(S(=O)(=O)Nc4nccs4)cc3Cl)C2)cc1 (single isomer, unassigned) ... 348
O=S(=O)(Nc1ncc(Cl)s1)c1cc(Cl)c(NCC23CCCN2CC2(C3)OCCO2)cc1F (single isomer, unassigned) [Ex10-9-B] ... 277
CC(Nc1cc(F)c(S(=O)(=O)Nc2nccs2)cc1Cl)C12CCCN1CCC2 (single isomer, unassigned) [Ex5-8] ... 407

Input: Which measured ratio of Nav1.7 potency:Nav 1.5 potency value corresponds to CC1CCC2(CNc3ccc(S(=O)(=O)Nc4nccs4)cc3C(F)(F)F)CCCN12 (single isomer, unassigned) [Ex11-10-A] ?
Output: 1376

Input: For the compound O=S(=O)(Nc1ncc(Cl)s1)c1cc(Cl)c(NCC23CCCN2CC(F)(F)C3)cc1F (racemic) , what ratio of Nav1.7 potency:Nav 1.5 potency is on record?
Output: 19

Reference for the values: patent US9586968B2
